Hey, just so you know, these numbers are from patent US7109193B2.

Give measured inhibition at 0.1 µM for each item. Keep answers brief.
- target_or_test_system: human oxytocin receptor (Homo sapiens, UniProt P30559)
- Construct: host or cells: CHO cells (pcDNA3.1 vector)
- Sequence (P30559 1-389): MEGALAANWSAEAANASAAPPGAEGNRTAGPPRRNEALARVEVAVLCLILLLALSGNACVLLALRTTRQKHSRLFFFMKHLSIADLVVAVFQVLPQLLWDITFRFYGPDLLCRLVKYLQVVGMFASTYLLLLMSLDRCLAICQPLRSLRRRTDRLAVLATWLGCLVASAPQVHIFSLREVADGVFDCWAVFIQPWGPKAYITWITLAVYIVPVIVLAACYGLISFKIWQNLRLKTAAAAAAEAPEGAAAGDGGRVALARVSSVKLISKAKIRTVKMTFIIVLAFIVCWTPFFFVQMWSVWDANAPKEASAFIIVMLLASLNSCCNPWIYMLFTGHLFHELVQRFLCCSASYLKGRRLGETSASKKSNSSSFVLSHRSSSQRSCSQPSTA
- method_notes: Oxytocin binding in Chinese Hamster Ovary cell membranes expressing human oxytocin receptors
- details: 100 nM, CHO cell membranes, [3H]oxytocin, values without parentheses, read-out: OT % inhibition @ 100% nM
Please state the figure in %; there is no need to write the unit.

What reported inhibition at 0.1 µM corresponds to Cc1cc(C(=O)N2Cc3ccc(C(=O)NCCN4CCCCC4)n3Cc3ccccc32)ccc1-c1ccccc1C(F)(F)F [Example 161] on human oxytocin receptor (Homo sapiens, UniProt P30559)?
53

What reported inhibition at 0.1 µM corresponds to Cc1cc(C(=O)N2Cc3ccc(C(=O)NCCCn4ccnc4)n3Cc3ccccc32)ccc1-c1ccccc1C(F)(F)F [Example 135] on human oxytocin receptor (Homo sapiens, UniProt P30559)?
24

What reported inhibition at 0.1 µM corresponds to Cc1ccccc1-c1ccc(C(=O)N2Cc3ccc(C(=O)NCCCN(C)C)n3Cc3ccccc32)cc1C [Example 73] on human oxytocin receptor (Homo sapiens, UniProt P30559)?
85

What reported inhibition at 0.1 µM corresponds to COc1cccc(-c2cc(OC)c(C(=O)N3Cc4ccc(C(=O)N(C)C5CCN(C)CC5)n4Cc4ccccc43)cc2Cl)c1 [Example 181] on human oxytocin receptor (Homo sapiens, UniProt P30559)?
100

What reported inhibition at 0.1 µM corresponds to COc1cccc(-c2ccc(C(=O)N3Cc4ccc(C(=O)N5CCN(CCCN(C)C)CC5)n4Cc4ccccc43)cc2OC)c1 [Example 255] on human oxytocin receptor (Homo sapiens, UniProt P30559)?
80

What reported inhibition at 0.1 µM corresponds to COc1cc(C(=O)N2Cc3ccc(C(=O)NCCC4CCCN4C)n3Cc3ccccc32)ccc1-c1cccc2ccccc12 (stereo not drawn) [Example 170] on human oxytocin receptor (Homo sapiens, UniProt P30559)?
47
